assay: Clearance in dog at 1 mg/kg, po; assay type: ADME, organism-based, Canis lupus familiaris; set-up: dose 1 mg/kg, route oral; settings: in vivo
measurementLabel: CL/F (mL/min/kg)
Output spec: scalar in mL/min/kg, unitless text.

Entry Cc1nc(Oc2ccc(S(C)(=O)=O)cc2)ccc1CN1CCC(N2C(=O)N(c3cc(C(N)=O)c(F)cc3F)C[C@H]2c2ccccc2)CC1 , CL/F reported as 2.1

* * *

assay: Oral bioavailability in dog at 1 mg/kg; assay type: ADME, organism-based, Canis lupus familiaris; details: in vivo
measurementLabel: bioavailability (%)
Output spec: scalar in %, unitless text.

Entry Cc1nc(Oc2ccc(S(C)(=O)=O)cc2)ccc1CN1CCC(N2C(=O)N(c3cc(C(N)=O)c(F)cc3F)C[C@H]2c2ccccc2)CC1 , bioavailability reported as 76

* * *

experiment: Half life in dog at 1 mg/kg, iv; type: ADME, organism-based, Canis lupus familiaris; set-up: dose 1 mg/kg, route intravenous; settings: in vivo
measurementLabel: half-life (h)
Output spec: scalar in h, unitless text.

Entry Cc1nc(Oc2ccc(S(C)(=O)=O)cc2)ccc1CN1CCC(N2C(=O)N(c3cc(C(N)=O)c(F)cc3F)C[C@H]2c2ccccc2)CC1 , half-life reported as 6.9

* * *

assay: Oral bioavailability in monkey at 1 mg/kg; assay type: ADME, organism-based, Macaca mulatta; conditions: rhesus monkey, in vivo
measurementLabel: bioavailability
Hey, just the number and the unit after it is fine.

Entry Cc1nc(Oc2ccc(S(C)(=O)=O)cc2)ccc1CN1CCC(N2C(=O)N(c3cc(C(N)=O)c(F)cc3F)C[C@H]2c2ccccc2)CC1 , bioavailability reported as 110%

* * *

experiment: Clearance in rat; format: ADME, organism-based; conditions: in vivo
measurementLabel: clearance
Hey, just the number and the unit after it is fine.

Entry Cc1nc(Oc2ccc(S(C)(=O)=O)cc2)ccc1CN1CCC(N2C(=O)N(c3cc(C(N)=O)c(F)cc3F)C[C@H]2c2ccccc2)CC1 , clearance reported as 27 mL/min/kg

* * *

In this section we review reported log10 IC50 values for a set of molecules.
tested on: Human immunodeficiency virus 1; assay: Antiviral activity against HIV1 Ba-L infected in human PBL cells assessed as reduction of viral replication after 4 days by Steady-Glo luciferase assay; format: functional, organism-based; conditions: Human immunodeficiency virus 1, Ba-L, 96 h
Lab note - IC50 converted to log10 from values in nM.

Cc1nc(Oc2ccc(S(=O)(=O)C(C)C)cc2)ccc1CN1CCC(N2C(=O)N(c3cc(C(N)=O)c(F)cc3F)C[C@H]2c2ccccc2)CC1 :: 0.04
Cc1nc(Oc2ccc(S(C)(=O)=O)cc2)ccc1CN1CCC(N2C(=O)N(c3cc(C(N)=O)c(F)cc3F)C[C@@H]2c2ccccc2)CC1 :: 2.46
Cc1nc(Oc2ccc(S(C)(=O)=O)cc2F)ccc1CN1CCC(N2C(=O)N(c3cc(C(N)=O)c(F)cc3F)C[C@H]2c2ccccc2)CC1 :: -0.22
Cc1nc(Oc2ccc(S(C)(=O)=O)cc2)ccc1CN1CCC(N2C(=O)N(c3cc(C(N)=O)c(F)cc3F)C[C@H]2c2ccccc2)CC1 :: 0.00

Entry CC(C)c1nc(Oc2ccc(S(C)(=O)=O)cc2)ccc1CN1CCC(N2C(=O)N(c3cc(C(N)=O)c(F)cc3F)C[C@H]2c2ccccc2)CC1 , log10 IC50 reported as 0.20

Entry Cc1nc(Oc2ccc(S(C)(=O)=O)cc2)ccc1CN1CCC(N2C(=O)N(c3cc(C(N)=O)c(F)cc3F)CC2c2ccccc2)CC1 (racemic) , log10 IC50 reported as 0.30

Entry Cc1nc(Oc2ccc(NS(C)(=O)=O)cc2)ccc1CN1CCC(N(Cc2ccccc2F)C(=O)Nc2cc(C(N)=O)c(F)cc2F)CC1 , log10 IC50 reported as -0.05

Entry Cc1nc(Oc2ccc(CC(=O)NC(C)C)cc2)ccc1CN1CCC(N2C(=O)N(c3cc(C(N)=O)c(F)cc3F)C[C@H]2c2ccccc2)CC1 , log10 IC50 reported as -0.30

Entry Cc1nc(Oc2ccc(NS(C)(=O)=O)cc2)ccc1CN1CCC(N(C(=O)Nc2cc(C(N)=O)c(F)cc2F)c2cccc(F)c2)CC1 , log10 IC50 reported as -0.22

* * *

experiment: Half life in monkey at 1 mg/kg, iv; assay type: ADME, organism-based, Macaca mulatta; set-up: dose 1 mg/kg, route intravenous; conditions: rhesus monkey, in vivo
measurementLabel: half-life (h)
Output spec: scalar in h, unitless text.

Entry Cc1nc(Oc2ccc(S(C)(=O)=O)cc2)ccc1CN1CCC(N2C(=O)N(c3cc(C(N)=O)c(F)cc3F)C[C@H]2c2ccccc2)CC1 , half-life reported as 1.4

Origin of measurements: ChEMBL document CHEMBL1909524
